All figures here come from patent US11453711B2.

experiment.summary: Body weight and food intake in C57BL/6 mice, fusion protein conjugates, 30 nmol/kg daily 10 days
Assay type: in vivo
value.type: Body weight reduction at 30 nmol/kg (% reduction compared to vehicle)(Day11) (%)

INSERT INTO results (molecule, unit_of_measurement, number) VALUES
  ('MLC018: fusion polypeptide SEQ ID NO: 265 conjugated with Moiety A at 52K of Linker (conjugate, Moiety A conjugated at linker K52) HGEGTFTSDVSSYLEEQAAREFIAWLVRGGGGQEPGAQPGQEPGAQPGQEPGAQPGQEPGAQPGQEPGAQPGQEPGAQPGQEKGAQPGQEPGAQPGQEPGAQPGQEPGAQPARQGDHCPLGPGRCCRLHTVRASLEDLGWADWVLSPREVQVTMCIGACPSQFRAANLHAQIKTSLHRLRPDTVPAPCCVPASYNPMVLIQRTDTGVSLQTYDDLLARDCHCI', '%', 23.5),
  ('MLC087: fusion polypeptide SEQ ID NO: 378 conjugated with Moiety B at 41C of Linker (conjugate, Moiety B conjugated at linker Cys41) HGEGTFTSDVSSYLEEQAAKEFIAWLVRGGGGAQPGAQPGAQPGAQPGAQPGAQPGAQPGAQPGQEPGAQPCQEPGAQPGQEPGAQPGQEPGAQPGQEPGAQPGQEPGAQPARQGDHCPLGPGRCCRLHTVRASLEDLGWADWVLSPREVQVTMCIGACPSQFRAANLHAQIKTSLHRLKPDTVPAPCCVPASYNPMVLIQKTDTGVSLQTYDDLLAKDCHCI', '%', 22.7),
  ('MLC017: fusion polypeptide SEQ ID NO: 264 conjugated with Moiety A at 55K of Linker (conjugate, Moiety A conjugated at linker K55) HGEGTFTSDVSSYLEEQAAREFIAWLVRGGGGQEPGAQPGQEPGAQPGQEPGAQPGQEPGAQPGQEPGAQPGQEPGAQPGAQPGAKPGAQPGAQPGAQPGAQPGAQPGAQPARQGDHCPLGPGRCCRLHTVRASLEDLGWADWVLSPREVQVTMCIGACPSQFRAANLHAQIKTSLHRLRPDTVPAPCCVPASYNPMVLIQRTDTGVSLQTYDDLLARDCHCI', '%', 25.4),
  ('MLC089: fusion polypeptide SEQ ID NO: 379 conjugated with Moiety B at 39C of Linker (conjugate, Moiety B conjugated at linker Cys39) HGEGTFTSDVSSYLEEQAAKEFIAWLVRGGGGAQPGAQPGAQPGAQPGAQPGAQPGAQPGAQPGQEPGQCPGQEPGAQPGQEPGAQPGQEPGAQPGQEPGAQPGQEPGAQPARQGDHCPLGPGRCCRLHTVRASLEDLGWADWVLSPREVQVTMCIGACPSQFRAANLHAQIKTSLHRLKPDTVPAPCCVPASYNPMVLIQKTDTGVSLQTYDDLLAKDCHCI', '%', 24.6),
  ('MLC092: fusion polypeptide SEQ ID NO: 380 conjugated with Moiety C at 35C of Linker (conjugate, Moiety C conjugated at linker Cys35) HGEGTFTSDVSSYLEEQAAKEFIAWLVRGGGGAQPGAQPGAQPGAQPGAQPGAQPGAQPGAQPGQCPGAQPGQEPGAQPGQEPGAQPGQEPGAQPGQEPGAQPGQEPGAQPARQGDHCPLGPGRCCRLHTVRASLEDLGWADWVLSPREVQVTMCIGACPSQFRAANLHAQIKTSLHRLKPDTVPAPCCVPASYNPMVLIQKTDTGVSLQTYDDLLAKDCHCI', '%', 22.2),
  ('MLC064: fusion polypeptide SEQ ID NO: 359 conjugated with Moiety A at 51K of Linker (conjugate, Moiety A conjugated at linker K51) HGEGTFTSDVSSYLEEQAAREFIAWLVRGGGGQEPGAQPGQEPGAQPGQEPGAQPGQEPGAQPGQEPGAQPGQEPGAQPGAKPGAQPGAQPGAQPGAQPGAQPGAQPGAQPARQGDHCPLGPGRCCRLHTVRASLEDLGWADWVLSPREVQVTMCIGACPSQFRAANLHAQIKTSLHRLRPDTVPAPCCVPASYNPMVLIQRTDTGVSLQTYDDLLARDCHCI', '%', 24.0),
  ('MLC088: fusion polypeptide SEQ ID NO: 378 conjugated with Moiety C at 41C of Linker (conjugate, Moiety C conjugated at linker Cys41) HGEGTFTSDVSSYLEEQAAKEFIAWLVRGGGGAQPGAQPGAQPGAQPGAQPGAQPGAQPGAQPGQEPGAQPCQEPGAQPGQEPGAQPGQEPGAQPGQEPGAQPGQEPGAQPARQGDHCPLGPGRCCRLHTVRASLEDLGWADWVLSPREVQVTMCIGACPSQFRAANLHAQIKTSLHRLKPDTVPAPCCVPASYNPMVLIQKTDTGVSLQTYDDLLAKDCHCI', '%', 22.4),
  ('MLC014: negative control, SEQ ID NO: 261: linker fused to N terminal of GDF15, CRM conjugated to lysine in the linker; GDF15 derivative (conjugate, CRM conjugated to linker lysine, GDF15 derivative) SEPATSGQEKGQEPGQEPGQEPGQEPGQEPGAQPGAQPARQGDHCPLGPGRCCRLHTVRASLEDLGWADWVLSPREVQVTMCIGACPSQFRAANLHAQIKTSLHRLRPDTVPAPCCVPASYNPMVLIQRTDTGVSLQTYDDLLARDCHCI', '%', 9.5);
